# experimental system: human HSL (Homo sapiens, UniProt Q05469)
# Construct: generate a full length human HSL ORF with a 3′-His6 tag
# Sequence (Q05469 1-1076): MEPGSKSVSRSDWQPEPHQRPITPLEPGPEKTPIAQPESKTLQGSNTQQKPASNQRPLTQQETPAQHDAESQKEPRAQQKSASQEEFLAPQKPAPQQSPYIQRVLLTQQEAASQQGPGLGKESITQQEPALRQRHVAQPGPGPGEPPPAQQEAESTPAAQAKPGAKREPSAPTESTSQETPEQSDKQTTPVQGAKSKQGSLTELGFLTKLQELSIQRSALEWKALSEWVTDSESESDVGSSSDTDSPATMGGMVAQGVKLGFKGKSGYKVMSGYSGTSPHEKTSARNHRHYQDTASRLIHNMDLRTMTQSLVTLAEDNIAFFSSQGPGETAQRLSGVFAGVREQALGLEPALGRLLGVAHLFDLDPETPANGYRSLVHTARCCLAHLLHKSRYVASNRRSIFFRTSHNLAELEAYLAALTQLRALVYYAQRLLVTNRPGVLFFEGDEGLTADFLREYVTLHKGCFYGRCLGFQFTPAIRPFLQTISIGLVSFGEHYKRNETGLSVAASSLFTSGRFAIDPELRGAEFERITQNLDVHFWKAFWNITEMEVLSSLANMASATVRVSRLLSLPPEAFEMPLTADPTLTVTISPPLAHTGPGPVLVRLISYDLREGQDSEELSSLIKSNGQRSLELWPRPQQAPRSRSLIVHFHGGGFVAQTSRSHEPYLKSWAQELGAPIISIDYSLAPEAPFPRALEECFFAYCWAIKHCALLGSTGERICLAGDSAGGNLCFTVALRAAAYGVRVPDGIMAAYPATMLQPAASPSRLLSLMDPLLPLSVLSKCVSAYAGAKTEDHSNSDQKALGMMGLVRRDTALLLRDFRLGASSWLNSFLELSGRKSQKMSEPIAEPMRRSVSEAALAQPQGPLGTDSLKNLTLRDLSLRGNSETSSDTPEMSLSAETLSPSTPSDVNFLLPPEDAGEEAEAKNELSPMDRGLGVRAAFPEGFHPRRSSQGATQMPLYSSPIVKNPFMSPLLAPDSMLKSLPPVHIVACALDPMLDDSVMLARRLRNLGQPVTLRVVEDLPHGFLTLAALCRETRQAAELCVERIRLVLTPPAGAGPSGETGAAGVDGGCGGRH
# experiment notes: Human Hormone-Sensitive Lipase (HSL) enzyme inhibition assay (colorimetric, DMPT substrate)
# measurement setup: human full length HSL-His6, 2,3-dimercapto-1-propanol tributyrate substrate, 37° C. 20 minutes, absorbance at 405 nm; read-out: HSL hum IC50
observation type: IC50 (nM)

compound=COCC#C[C@]1(O)CC[C@]2(CCN(c3ccc(CC(F)(F)F)cc3)C2=O)CC1 observation_type=IC50 val=30
compound=CC1=CC[C@@]2(CC1)CCN(c1ccc(OC(F)(F)F)cc1)C2=O observation_type=IC50 val=1600
compound=CC(C)C[C@]1(O)CC[C@]2(CCN(c3ccc(OC(C)C)cc3)C2=O)CC1 observation_type=IC50 val=10
compound=COCCC[C@]1(O)CC[C@]2(CCN(c3ccc(OC(F)(F)F)cc3)C2=O)CC1 observation_type=IC50 val=23
compound=CCOC[C@]1(O)CC[C@]2(CCN(c3ccc(OCC(F)(F)F)nc3)C2=O)CC1 observation_type=IC50 val=70
compound=O=C1N(c2ccc(OC(F)(F)F)cc2)CC[C@]12CC[C@@](O)(Cc1ccccc1)CC2 observation_type=IC50 val=20
compound=CC(C)CS(=O)(=O)C[C@]1(O)CC[C@]2(CCN(c3ccc(C(C)(C)C)cc3)C2=O)CC1 observation_type=IC50 val=7
compound="CC(F)(F)C(O)c1ccc(N2CC[C@]3(CC[C@@](O)(CCC(F)(F)F)CC3)C2=O)cc1 (some centres unmarked)" observation_type=IC50 val=30
